assayProcedure: xn = mol fraction of the nth substance listed, in the solute-free solvent
conditions: 283.15 K; x2 = 0.04165
For each record, write down the corresponding solubility (g/100 g solution).
Answers are plain numbers.

[
  {
    "compound": "O=c1cc(CBr)c2ccccc2[nH]1 + CCO + O",
    "valueType": "solubility (g/100 g solution)",
    "numericValue": 0.0174
  },
  {
    "compound": "Nc1cc(-c2ccncc2)c[nH]c1=O + CCO + O",
    "valueType": "solubility (g/100 g solution)",
    "numericValue": 0.00134
  },
  {
    "compound": "Nc1ncc(Br)nc1Br + CCO + O",
    "valueType": "solubility (g/100 g solution)",
    "numericValue": 0.0254
  },
  {
    "compound": "O=C1C=CC(=O)N1c1ccccc1Br + CCO + O",
    "valueType": "solubility (g/100 g solution)",
    "numericValue": 0.674
  }
]

Next, consider the following compound.
Prompt: For the compound CC(C)C(=O)Nc1ccc([N+](=O)[O-])c(C(F)(F)F)c1 + CCO + O , report solubility (g/100 g solution).
Completion: 0.00366

###

assayProcedure: xn = mol fraction of the nth substance listed, in the solute-free solvent
conditions: 313.15 K; x2 = 0.2068
For each record, write down the corresponding solubility (g/100 g solution).
Answers are plain numbers.

[
  {
    "compound": "CC(C)C(=O)Nc1ccc([N+](=O)[O-])c(C(F)(F)F)c1 + CCO + O",
    "solubility (g/100 g solution)": 1.26
  },
  {
    "compound": "O=c1cc(CBr)c2ccccc2[nH]1 + CCO + O",
    "solubility (g/100 g solution)": 0.148
  },
  {
    "compound": "Nc1ncc(Br)nc1Br + CCO + O",
    "solubility (g/100 g solution)": 0.438
  },
  {
    "compound": "Nc1cc(-c2ccncc2)c[nH]c1=O + CCO + O",
    "solubility (g/100 g solution)": 0.0101
  }
]

Prompt: For the compound O=C1C=CC(=O)N1c1ccccc1Br + CCO + O , report solubility (g/100 g solution).
Completion: 9.81

###

assayProcedure: xn = mol fraction of the nth substance listed, in the solute-free solvent
conditions: 313.15 K; x2 = 0.5454
Threshold rule: solubility (g/100 g solution) greater than or equal to 0.5 is rule met; below that, rule not met.

// known answers, use as guide
[
  {
    "compound": "O=c1cc(CBr)c2ccccc2[nH]1 + CC(C)O + O",
    "group": "rule not met"
  },
  {
    "compound": "O=c1cc(CBr)c2ccccc2[nH]1 + CCCO + O",
    "group": "rule not met"
  }
]

Prompt: Is the recorded value of solubility (g/100 g solution) equal to or greater than 0.5 for this compound? CC(C)C(=O)Nc1ccc([N+](=O)[O-])c(C(F)(F)F)c1 + CC(C)O + O
Completion: rule met

Prompt: Is the recorded value of solubility (g/100 g solution) equal to or greater than 0.5 for this compound? O=C1C=CC(=O)N1c1ccccc1Br + CC(C)O + O
Completion: rule met

###

For each record, write down the corresponding solubility (g/100 g solution).
assayProcedure: xn = mol fraction of the nth substance listed, in the solute-free solvent
conditions: 278.15 K; x2 = 0.1139
Answers are plain numbers.

Record excerpt, results attached:
[
  {
    "molecule": "O=c1cc(CBr)c2ccccc2[nH]1 + CC(C)O + O",
    "numericValue": 0.03
  },
  {
    "molecule": "O=c1cc(CBr)c2ccccc2[nH]1 + CCCO + O",
    "numericValue": 0.0465
  },
  {
    "molecule": "O=C1C=CC(=O)N1c1ccccc1Br + CC(C)O + O",
    "numericValue": 1.4
  }
]

Would you be so kind as to report solubility (g/100 g solution) for each listed record?
1. Nc1ncc(Br)nc1Br + CC(C)O + O
2. CC(C)C(=O)Nc1ccc([N+](=O)[O-])c(C(F)(F)F)c1 + CC(C)O + O

Completion:
1. 0.0745
2. 0.145
